# Tested on: human red blood cells (hRBC)
# ASSAY_NAME: Hemolysis of human red blood cells
# Type: cell-based
# REPORTED_CONDITIONS: red cells of human, 1 h, 100
Where a SMILES comes first, the peptide text is derived from it. [ ]: non-standard residue; d: D form. Ala(thiazol-2-yl) = N[C@@H](Cc1nccs1)C(=O)O; Ala(4-thiazolyl) = N[C@@H](Cc1cscn1)C(=O)O; Pro(3S-OH) = O=C(O)[C@H]1NCC[C@@H]1O; Cha = N[C@@H](CC1CCCCC1)C(=O)O; Chg = N[C@H](C(=O)O)C1CCCCC1; Tle = CC(C)(C)[C@H](N)C(=O)O; dDab = NCC[C@@H](N)C(=O)O; Orn = NCCC[C@H](N)C(=O)O; Dab = NCC[C@H](N)C(=O)O; Dap = NC[C@H](N)C(=O)O
VALUE_KIND: Hemolysis at 100 μg/ml

Some compounds with known Hemolysis at 100 μg/ml results, for comparison:
{"columns": ["COMPOUND", "VALUE_KIND", "OBSERVED_RESULT"],
 "data": [
  ["C[C@@H]1NC(=O)[C@H](Cc2c[nH]c3ccccc23)NC(=O)[C@@H]2CCCN2C(=O)[C@H]2CCCN2C(=O)[C@H](CO)NC(=O)[C@H](Cc2nccs2)NC(=O)[C@H](C(C)(C)C)NC(=O)[C@H](CCN)NC(=O)[C@H](Cc2c[nH]c3ccccc23)NC(=O)[C@H](CCN)NC(=O)[C@@H](CCN)NC(=O)[C@H](CCCN)NC(=O)[C@H](CCN)NC(=O)[C@H](CC2CCCCC2)NC1=O [compound 7] (cyclo(WA[Cha][Dab][Orn][dDab][Dab]W[Dab][Tle][Ala(thiazol-2-yl)]S[dP]P))", "Hemolysis at 100 μg/ml", "8%"],
  ["CC(C)C[C@@H]1NC(=O)[C@@H]2CCCN2C(=O)[C@H]2CCCN2C(=O)[C@H](CO)NC(=O)[C@H](C)NC(=O)[C@H](C(C)(C)C)NC(=O)[C@H](CCCCN)NC(=O)[C@H](Cc2c[nH]c3ccccc23)NC(=O)[C@H](CCN)NC(=O)[C@@H](CCN)NC(=O)[C@H](CCCN)NC(=O)[C@H](CCN)NC(=O)[C@H](Cc2ccc(O)cc2)NC(=O)[C@H](CO)NC1=O [compound 100] (cyclo(LSY[Dab][Orn][dDab][Dab]WK[Tle]AS[dP]P))", "Hemolysis at 100 μg/ml", "1%"],
  ["C[C@@H]1NC(=O)[C@H](C2CCCCC2)NC(=O)[C@H](CCN)NC(=O)[C@H](Cc2c[nH]c3ccccc23)NC(=O)[C@H](CCN)NC(=O)[C@@H](CCN)NC(=O)[C@H](CCCN)NC(=O)[C@H](CCN)NC(=O)[C@H](Cc2ccc(O)cc2)NC(=O)[C@H](CO)NC(=O)[C@H](Cc2ccc(O)cc2)NC(=O)[C@@H]2CCCN2C(=O)[C@H]2CCCN2C(=O)[C@H](CO)NC1=O [compound 73] (cyclo(YSY[Dab][Orn][dDab][Dab]W[Dab][Chg]AS[dP]P))", "Hemolysis at 100 μg/ml", "0%"],
  ["C[C@@H]1NC(=O)[C@H](C(C)(C)C)NC(=O)[C@H](CCN)NC(=O)[C@H](Cc2c[nH]c3ccccc23)NC(=O)[C@H](CCN)NC(=O)[C@@H](CCN)NC(=O)[C@H](CCCN)NC(=O)[C@H](CCN)NC(=O)[C@H](CC2CCCCC2)NC(=O)[C@H](CNC(=O)[C@@H](N)[C@@H](C)O)NC(=O)[C@H](Cc2c[nH]c3ccccc23)NC(=O)[C@@H]2CCCN2C(=O)[C@H]2CCCN2C(=O)[C@H](CO)NC1=O [compound 14] (cyclo(W[Dap](Thr)[Cha][Dab][Orn][dDab][Dab]W[Dab][Tle]AS[dP]P))", "Hemolysis at 100 μg/ml", "0%"],
  ["CC(C)C[C@@H]1NC(=O)[C@@H]2[C@@H](O)CCN2C(=O)[C@H]2CCCN2C(=O)[C@H](CO)NC(=O)[C@H](C)NC(=O)[C@H](Cc2ccc(O)cc2)NC(=O)[C@H](CCN)NC(=O)[C@H](Cc2c[nH]c3ccccc23)NC(=O)[C@H](CCN)NC(=O)[C@@H](CCN)NC(=O)[C@H](CCCN)NC(=O)[C@H](CCN)NC(=O)[C@H](Cc2ccc(O)cc2)NC(=O)[C@H](CO)NC1=O [Ex. 55] (cyclo(LSY[Dab][Orn][dDab][Dab]W[Dab]YAS[dP][Pro(3S-OH)]))", "Hemolysis at 100 μg/ml", "1%"],
  ["C[C@@H]1NC(=O)[C@H](C(C)(C)C)NC(=O)[C@H](CCN)NC(=O)[C@H](Cc2c[nH]c3ccccc23)NC(=O)[C@H](CCN)NC(=O)[C@@H](CCN)NC(=O)[C@H](CCCN)NC(=O)[C@H](CCN)NC(=O)[C@H](CC2CCCCC2)NC(=O)[C@H](CO)NC(=O)[C@H](Cc2cscn2)NC(=O)[C@@H]2CCCN2C(=O)[C@H]2CCCN2C(=O)[C@H](CO)NC1=O [compound 22] (cyclo([Ala(4-thiazolyl)]S[Cha][Dab][Orn][dDab][Dab]W[Dab][Tle]AS[dP]P))", "Hemolysis at 100 μg/ml", "0%"]
]}

IN: // returns reported Hemolysis at 100 μg/ml for input CC(C)[C@@H]1NC(=O)[C@@H]2CCCN2C(=O)[C@H]2CCCN2C(=O)[C@H](CO)NC(=O)[C@H](C)NC(=O)[C@H](C2CCCCC2)NC(=O)[C@H](CCN)NC(=O)[C@H](Cc2c[nH]c3ccccc23)NC(=O)[C@H](CCN)NC(=O)[C@@H](CCN)NC(=O)[C@H](CCCN)NC(=O)[C@H](CCN)NC(=O)[C@H](Cc2ccc(O)cc2)NC(=O)[C@H](CO)NC1=O [compound 90] (cyclo(VSY[Dab][Orn][dDab][Dab]W[Dab][Chg]AS[dP]P))
OUT: 2%

IN: Requested read-out: Hemolysis at 100 μg/ml. Entry: CC(C)[C@@H]1NC(=O)[C@@H]2[C@@H](O)CCN2C(=O)[C@H]2CCCN2C(=O)[C@H](CO)NC(=O)[C@H](C)NC(=O)[C@H](C(C)(C)C)NC(=O)[C@H](CCN)NC(=O)[C@H](Cc2c[nH]c3ccccc23)NC(=O)[C@H](CCN)NC(=O)[C@@H](CCN)NC(=O)[C@H](CCCN)NC(=O)[C@H](CCN)NC(=O)[C@H](Cc2ccc(O)cc2)NC(=O)[C@H](CO)NC1=O [compound 56] (cyclo(AS[dP][Pro(3S-OH)]VSY[Dab][Orn][dDab][Dab]W[Dab][Tle]))
OUT: 1%

IN: Any idea what its Hemolysis at 100 μg/ml is? The compound is C[C@@H]1NC(=O)[C@H](CC2CCCCC2)NC(=O)[C@H](CCN)NC(=O)[C@H](Cc2c[nH]c3ccccc23)NC(=O)[C@H](CCN)NC(=O)[C@@H](CCN)NC(=O)[C@H](CCCCN)NC(=O)[C@H](CCN)NC(=O)[C@H](Cc2ccc(O)cc2)NC(=O)[C@H](C)NC(=O)[C@H](Cc2c[nH]c3ccccc23)NC(=O)[C@@H]2CCCN2C(=O)[C@H]2CCCN2C(=O)[C@H](CO)NC1=O [compound 76] (cyclo(WAY[Dab]K[dDab][Dab]W[Dab][Cha]AS[dP]P))
OUT: 2%
